Biological target: μ-opioid receptor (Homo sapiens, UniProt P35372)
Construct: expressed in transfected cells; host or cells: HEK-293
Sequence (P35372 whole entry, species assumed): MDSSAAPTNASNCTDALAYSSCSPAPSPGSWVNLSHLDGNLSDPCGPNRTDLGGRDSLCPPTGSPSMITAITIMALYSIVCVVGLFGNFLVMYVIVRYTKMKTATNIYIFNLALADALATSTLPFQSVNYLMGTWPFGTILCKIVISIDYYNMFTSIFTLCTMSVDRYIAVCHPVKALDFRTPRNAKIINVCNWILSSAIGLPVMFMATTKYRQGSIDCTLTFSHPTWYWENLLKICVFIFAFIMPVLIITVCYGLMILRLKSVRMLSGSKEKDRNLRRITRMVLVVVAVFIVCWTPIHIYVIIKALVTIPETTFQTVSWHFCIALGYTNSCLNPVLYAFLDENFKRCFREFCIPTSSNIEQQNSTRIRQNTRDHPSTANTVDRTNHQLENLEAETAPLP
Test: μ-opioid receptor [35S]GTPγS functional assay
Assay type: biochemical
Details: cell prints μM under an nM head, HEK-293 cells
Result Type: EC50

Compound	Study Target	EC50
COc1ccc(CN2CC[C@]34CCN(C)[C@H](Cc5ccc(OC)cc53)[C@@H]4C2)cc1 [Compound 9]	μ-opioid receptor (Homo sapiens, UniProt P35372)	> 20 µM

Sample COc1ccc(CN2C[C@H]3[C@H]4Cc5ccc(OC)cc5[C@@]3(CCN4C)CC2=O)cc1 [Compound 8] ; EC50 observed: > 20 µM

Sample COc1ccc2c(c1)[C@]13CCN(C)[C@H](C2)[C@@H]1CNC(=O)C3 [Compound 11] ; EC50 observed: > 20 µM
